From: the supplement of paper PMC10065799

So I've got a bunch of sequences here, and I need their SH2 binding enrichment values.
Target: c-Src SH2;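 also: peptide library displayed on the E. coli surface as eCPX fusions, selected cells deep-sequenced, score is each peptide's frequency after selection divided by its frequency in the input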
Experiment: SH2 binding enrichment of the phosphorylated peptide, bacterial display (enrichment ratio); higher = better substrate or ligand; peptides without Tyr show the background
Answers are plain numbers.

Below, 4 sequences whose answers are already recorded.
- query-sequence: "QMVGMYAFSYM [AVPR2_Y124_S126F]"
  SH2 binding enrichment: 0.562
- query-sequence: "KELSNYKHLTL [SLIT2_Y776]"
  SH2 binding enrichment: 0.503
- query-sequence: "AALLNYKAGRD [GRIN2A_Y737_V734L]"
  SH2 binding enrichment: 0.523
- query-sequence: "MGHVNYGAFIN [GLB1_Y485_R482H_YF]"
  SH2 binding enrichment: 0.44

# ---- query sequence ----
Input line: I am curious: what SH2 binding enrichment value has been reported for MSRLKYPVSQQ [BTK_Y375_I370M] ?
Output line: 0.608
